Each entry below carries its reported pIC50.
- assayedSystem: GPIIb-IIIa (Homo sapiens, UniProt P05106+P08514)
- Construct: Purified platelet GPIIb-IIIa receptor was prepared as described by Fitzgerald
- Sequence (P08514 32-887 limits assumed): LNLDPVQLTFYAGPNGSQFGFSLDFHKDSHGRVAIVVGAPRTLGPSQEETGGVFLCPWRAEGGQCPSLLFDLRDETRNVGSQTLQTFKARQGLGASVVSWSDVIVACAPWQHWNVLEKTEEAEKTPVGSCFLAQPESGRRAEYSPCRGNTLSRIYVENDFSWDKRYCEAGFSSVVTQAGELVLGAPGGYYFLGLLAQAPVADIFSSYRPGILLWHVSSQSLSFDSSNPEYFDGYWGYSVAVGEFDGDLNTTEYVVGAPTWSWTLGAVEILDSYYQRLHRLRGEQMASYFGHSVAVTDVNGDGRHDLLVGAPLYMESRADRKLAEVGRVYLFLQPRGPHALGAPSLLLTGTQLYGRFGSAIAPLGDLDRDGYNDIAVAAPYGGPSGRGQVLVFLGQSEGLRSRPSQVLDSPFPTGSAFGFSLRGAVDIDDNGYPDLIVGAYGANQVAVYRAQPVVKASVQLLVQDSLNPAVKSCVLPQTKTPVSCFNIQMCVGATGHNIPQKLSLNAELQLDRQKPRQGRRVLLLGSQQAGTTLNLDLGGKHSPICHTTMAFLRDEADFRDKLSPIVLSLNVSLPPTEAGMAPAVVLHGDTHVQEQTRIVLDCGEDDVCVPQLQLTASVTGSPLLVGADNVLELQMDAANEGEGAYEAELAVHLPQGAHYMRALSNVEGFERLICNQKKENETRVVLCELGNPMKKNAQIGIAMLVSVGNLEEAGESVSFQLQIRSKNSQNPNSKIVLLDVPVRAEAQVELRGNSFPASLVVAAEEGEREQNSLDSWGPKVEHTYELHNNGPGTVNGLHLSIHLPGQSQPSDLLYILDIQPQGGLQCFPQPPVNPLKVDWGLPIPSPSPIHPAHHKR
- Sequence (P08514 891-1039 limits assumed): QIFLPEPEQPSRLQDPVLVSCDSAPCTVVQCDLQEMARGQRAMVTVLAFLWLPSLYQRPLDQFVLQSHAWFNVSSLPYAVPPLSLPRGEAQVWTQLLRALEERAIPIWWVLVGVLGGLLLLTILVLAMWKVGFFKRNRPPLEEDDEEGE
- Sequence (P05106 27-788): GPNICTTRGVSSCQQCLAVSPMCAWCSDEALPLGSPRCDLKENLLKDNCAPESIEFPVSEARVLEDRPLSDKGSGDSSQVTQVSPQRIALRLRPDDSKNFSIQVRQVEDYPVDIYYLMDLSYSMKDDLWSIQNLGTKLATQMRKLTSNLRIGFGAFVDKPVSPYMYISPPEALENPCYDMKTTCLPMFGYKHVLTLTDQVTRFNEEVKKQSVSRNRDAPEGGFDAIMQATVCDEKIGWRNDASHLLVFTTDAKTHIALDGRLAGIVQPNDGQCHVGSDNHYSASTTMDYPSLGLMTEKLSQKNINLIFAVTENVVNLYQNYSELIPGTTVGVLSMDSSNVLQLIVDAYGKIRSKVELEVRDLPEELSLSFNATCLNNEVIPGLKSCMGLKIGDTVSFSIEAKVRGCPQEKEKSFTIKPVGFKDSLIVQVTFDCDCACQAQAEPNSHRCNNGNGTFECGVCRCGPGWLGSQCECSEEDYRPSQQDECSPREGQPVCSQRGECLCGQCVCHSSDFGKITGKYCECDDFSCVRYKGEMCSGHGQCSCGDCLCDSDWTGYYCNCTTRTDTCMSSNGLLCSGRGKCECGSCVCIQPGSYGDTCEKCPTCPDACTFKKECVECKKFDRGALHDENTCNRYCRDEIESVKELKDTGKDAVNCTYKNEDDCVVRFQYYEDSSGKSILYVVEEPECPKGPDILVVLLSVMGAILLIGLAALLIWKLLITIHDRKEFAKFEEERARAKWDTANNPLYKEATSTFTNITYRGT
- procedureDetails: ELISA IIb-IIIa assay (fibrinogen binding to immobilized purified GPIIb-IIIa)
- experimentalConditions: inhibition of fibrinogen binding to purified GPIIb-IIIa
As a rule, pIC50 stands for the negative log10 of the concentration, concentration in M.

# count of solved cases: 3
compound	assayedSystem	pIC50
O=C(O)CCCCCCC(=O)N1CCC2(CC1)CCN(c1ccncc1)CC2 [Example 4]	GPIIb-IIIa (Homo sapiens, UniProt P05106+P08514)	5.94
O=C(O)CCCCCC(=O)N1CCC2(CCN(c3ccncc3)CC2)C1 [Example 24]	GPIIb-IIIa (Homo sapiens, UniProt P05106+P08514)	7.80
O=C(N[C@@H](CCC(=O)N1CCC2(CCN(c3ccncc3)CC2)C1)C(=O)O)OCc1ccccc1 [Example 20]	GPIIb-IIIa (Homo sapiens, UniProt P05106+P08514)	7.92

Fill blank: measured pIC50 of the compound Cc1noc(C)c1S(=O)(=O)N[C@@H](CNC(=O)N1CCC2(CC1)CCN(c1ccncc1)CC2)C(=O)O [Example 10] is ____. 9.00

----------
- Test system: human platelet-rich plasma
- procedureDetails: Platelet aggregation assay (Aggregation-Human PRP/ADP)
- Assay type: cell-based
- experimentalConditions: read-out: PRP (ADP) IC50
Some compounds, each annotated with its measured IC50.
Reply numerically in µM, unit not repeated.

Here is how some compounds turned out for IC50.
compound	IC50 / µM
CC(CNC(=O)C1CCC2(CC1)CCN(c1ccncc1)CC2)CC(=O)O (stereo not shown) [Example 18]	3
CC(CC(=O)O)NC(=O)C1CCC2(CC1)CCN(c1ccncc1)CC2 (stereo not shown) [Example 17]	14.8
CCCCS(=O)(=O)N[C@@H](CNC(=O)C1CCC2(CC1)CCN(c1ccncc1)CC2)C(=O)O [Example 15]	0.168

Now for the compound whose IC50 we want.
Param readout = IC50; param system = human platelet-rich plasma; param query = CCCCOC(=O)N[C@@H](CNC(=O)C1CCC2(CC1)CCN(c1ccncc1)CC2)C(=O)O [Example 16] ; response: value 1.88

----------
Parameter: IC50. Scope: all listed entries.
- assayedSystem: GPIIb-IIIa (Homo sapiens, UniProt P05106+P08514)
- Construct: Purified platelet GPIIb-IIIa receptor was prepared as described by Fitzgerald
- procedureDetails: ELISA IIb-IIIa assay (fibrinogen binding to immobilized purified GPIIb-IIIa)
- experimentalConditions: inhibition of fibrinogen binding to purified GPIIb-IIIa
# number only, unit nM dropped from output

Some entries whose results are on file:
compound	outputUnit	reportedResult
O=C(N[C@@H](CCC(=O)N1CCC2(CC1)CCN(c1ccncc1)CC2)C(=O)O)OCc1ccccc1 [Example 5]	nM	7
CCCCS(=O)(=O)N[C@@H](CNC(=O)C1CCC2(CC1)CCN(c1ccncc1)CC2)C(=O)O [Example 15]	nM	10

Would you kindly look at the next entry?
Which IC50 is reported with GPIIb-IIIa (Homo sapiens, UniProt P05106+P08514) for this entry: O=C(O)CCN1CCC(C(=O)N2CCC3(CC2)CCN(c2ccncc2)C3)CC1 [Example 49] ? 17

----------
- assayedSystem: GPIIb-IIIa (Homo sapiens, UniProt P05106+P08514)
- Construct: Purified platelet GPIIb-IIIa receptor was prepared as described by Fitzgerald
- procedureDetails: ELISA IIb-IIIa assay (fibrinogen binding to immobilized purified GPIIb-IIIa)
- experimentalConditions: inhibition of fibrinogen binding to purified GPIIb-IIIa
measuredMetric: IC50 (nM)
Entry rule: numbers only, all in nM.

Known results for compounds:
compound	IC50 (nM)
Cc1noc(C)c1S(=O)(=O)N[C@@H](CCC(=O)N1CCC2(CC1)CCN(c1ccncc1)C2)C(=O)O [Example 34]	2
O=C(O)COC1CCN(C(=O)N2CCC3(CC2)CCN(c2ccncc2)C3)CC1 [Example 44]	138
O=C(O)CCCCCCC(=O)N1CCC2(CCN(c3ccncc3)CC2)C1 [Example 23]	196
CCCCOC(=O)N[C@@H](CCC(=O)N1CCC2(CCN(c3ccncc3)CC2)C1)C(=O)O [Example 21]	162
O=C(O)CC(=O)N1CCCN(C(=O)N2CCC3(CC2)CCN(c2ccncc2)C3)CC1 [Example 43]	25

IC50 lookup needed for Cc1noc(C)c1S(=O)(=O)N[C@@H](CCC(=O)N1CCC2(CC1)CCN(c1ccncc1)CC2)C(=O)O [Example 8] , thanks. 2

Any idea what IC50 was measured for O=C(O)COC1CCN(C(=O)N2CCC3(CCN(c4ccncc4)CC3)C2)CC1 [Example 26] ? 457

Using the record for O=C(O)CCNC(=O)N1CCC2(CC1)CCN(c1ccncc1)C2 [Example 55] , report its IC50. 28900
